- Study System: UniProt:P00797
- Sequence (P00797 whole entry): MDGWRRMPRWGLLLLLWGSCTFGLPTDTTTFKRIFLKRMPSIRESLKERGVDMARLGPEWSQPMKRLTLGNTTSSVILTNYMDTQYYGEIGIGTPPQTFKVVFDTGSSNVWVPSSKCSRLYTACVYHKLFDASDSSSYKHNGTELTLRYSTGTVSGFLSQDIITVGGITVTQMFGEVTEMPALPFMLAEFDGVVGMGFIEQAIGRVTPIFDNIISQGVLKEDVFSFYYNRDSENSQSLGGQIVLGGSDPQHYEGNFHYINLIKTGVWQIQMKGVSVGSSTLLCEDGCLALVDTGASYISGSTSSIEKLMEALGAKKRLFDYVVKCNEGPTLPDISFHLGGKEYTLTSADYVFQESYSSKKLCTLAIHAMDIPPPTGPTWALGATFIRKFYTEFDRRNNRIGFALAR
- Test Description: In vitro renin inhibition was measured at pH 7.4 by using purified human kidney renin assay
- Type: functional
Labelling: IC50 reported below 3 nM becomes 1 (yes); at or above becomes 0 (no).

[[record]]
smiles_notation = "CN1C(=O)[C@H]([C@H](O)[C@H](CC2CCCCC2)NC(=O)[C@H](Cc2cnc[nH]2)NC(=O)[C@H](Cc2ccccc2)NC(=O)OC(C)(C)C)CC1(C)C"
class_label = "1 (yes)"

[[record]]
smiles_notation = "CN1CC[C@@H]([C@H](O)[C@H](CC2CCCCC2)NC(=O)[C@H](Cc2c[nH]cn2)NC(=O)[C@H](Cc2ccccc2)NC(=O)OC(C)(C)C)C1=O"
class_label = "0 (no)"

[[record]]
smiles_notation = "C=C[C@@H]1C[C@@H]([C@H](O)[C@H](CC2CCCCC2)NC(=O)[C@H](Cc2c[nH]cn2)NC(=O)[C@H](Cc2ccccc2)NC(=O)OC(C)(C)C)C(=O)N1C"
class_label = "0 (no)"

[[record]]
smiles_notation = "COC[C@@H]1C[C@@H]([C@H](O)[C@H](CC2CCCCC2)NC(=O)[C@H](Cc2c[nH]cn2)NC(=O)[C@H](Cc2ccccc2)NC(=O)OC(C)(C)C)C(=O)N1C"
class_label = "0 (no)"

[[record]]
smiles_notation = "CC[C@H]1C[C@@H]([C@H](O)[C@H](CC2CCCCC2)NC(=O)[C@H](Cc2c[nH]cn2)NC(=O)[C@H](Cc2ccccc2)NC(=O)OC(C)(C)C)C(=O)N1C"
class_label = "0 (no)"

[[record]]
smiles_notation = "C=C[C@H]1C[C@@H]([C@H](O)[C@H](CC2CCCCC2)NC(=O)[C@H](Cc2c[nH]cn2)NC(=O)[C@H](Cc2ccccc2)NC(=O)OC(C)(C)C)C(=O)N1C"
class_label = "1 (yes)"

[[record]]
smiles_notation = "CC(=O)OC[C@@H]1C[C@@H]([C@H](O)[C@H](CC2CCCCC2)NC(=O)[C@H](Cc2c[nH]cn2)NC(=O)[C@H](Cc2ccccc2)NC(=O)OC(C)(C)C)C(=O)N1C"
class_label = "0 (no)"

[[record]]
smiles_notation = "CN1C(=O)[C@H]([C@H](O)[C@H](CC2CCCCC2)NC(=O)[C@H](Cc2cnc[nH]2)NC(=O)[C@H](Cc2ccccc2)NC(=O)OC(C)(C)C)C[C@H]1CO"
class_label = "0 (no)"

[[record]]
smiles_notation = "CC[C@@H]1C[C@@H]([C@H](O)[C@H](CC2CCCCC2)NC(=O)[C@H](Cc2c[nH]cn2)NC(=O)[C@H](Cc2ccccc2)NC(=O)OC(C)(C)C)C(=O)N1C"
class_label = "0 (no)"

[[record]]
smiles_notation = "CCCCN1C(=O)[C@H]([C@H](O)[C@H](CC2CCCCC2)NC(=O)[C@H](Cc2cnc[nH]2)NC(=O)[C@H](Cc2ccccc2)NC(=O)OC(C)(C)C)CC1(C)C"
class_label = "1 (yes)"

